Recorded values, source PubChem BioAssay AID1851.

target: Cytochrome P450 2D6 (Homo sapiens) (UniProt P10635); test: Cytochrome panel assay with activity outcomes; settings: recombinant CYP, pro-luciferin dealkylation, luminescence, p450-cyp2d6; series mostly up to 57.1 µM
Sequence (P10635 whole entry, looked up): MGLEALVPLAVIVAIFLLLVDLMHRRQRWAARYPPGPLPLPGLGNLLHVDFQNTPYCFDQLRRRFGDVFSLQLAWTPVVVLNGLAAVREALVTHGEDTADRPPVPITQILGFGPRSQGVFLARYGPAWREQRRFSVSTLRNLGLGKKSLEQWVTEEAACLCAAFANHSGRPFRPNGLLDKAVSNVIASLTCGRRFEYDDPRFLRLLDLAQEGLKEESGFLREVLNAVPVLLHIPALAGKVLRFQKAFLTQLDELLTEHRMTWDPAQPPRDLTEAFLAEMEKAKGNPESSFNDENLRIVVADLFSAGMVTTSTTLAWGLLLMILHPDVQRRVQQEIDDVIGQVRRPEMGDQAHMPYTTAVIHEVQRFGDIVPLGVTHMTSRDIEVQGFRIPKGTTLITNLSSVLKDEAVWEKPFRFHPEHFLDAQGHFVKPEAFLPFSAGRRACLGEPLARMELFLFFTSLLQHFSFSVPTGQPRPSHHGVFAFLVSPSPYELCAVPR
Among all 16,000 compounds or so, about 2,600 (16%) were called active. Not shown: some 20% with an inconclusive outcome. Calls come from the whole dose curve; as a rule, active = well fitted curve in the direction sought with a large enough effect; inconclusive = small, poorly fitted or top-dose-only effect, or effect the other way; inactive = no such curve, though single readings can be large or run the other way. Only a sample is shown.
Returns: one label drawn from yes (active), no (inactive)

Example entries begin here.
Which outcome was assigned to FC(F)(F)c1ccccc1-c1nc(Nc2ccncc2)c2ccccc2n1 in this test?
yes

Which outcome was assigned to CCc1c(C)c(C#N)c2nc3ccccc3n2c1Nc1c(C)n(C)n(-c2ccccc2)c1=O in this test?
no

Which outcome was assigned to CCCCCC1=C2CNC(CC(C)C)(C(=O)OC)C=C2C(C)C1=O (stereo not given) in this test?
yes

Which outcome was assigned to COc1ccc(S(=O)(=O)N(CCc2ccccc2)CC(=O)N2CCOCC2)cc1 in this test?
no

Further cases:
Which outcome was assigned to O=c1cc(-c2ccccc2)[nH]c2nc(Cl)ccc12 in this test?
no

Which outcome was assigned to CCC(=O)N1CCc2cc(S(=O)(=O)NC(C(=O)NCc3ccc(F)cc3)C(C)C)ccc21 (stereo not given) in this test?
no

Which outcome was assigned to CCCN(CCO)Cc1ccc(F)c(Br)c1 in this test?
yes

Which outcome was assigned to CC1CCCC(NC(=O)c2n[nH]c(=O)c3ccccc23)C1C (stereo not given) in this test?
no

Which outcome was assigned to O=C(NNC(=S)NCc1ccco1)c1ccc(Cl)s1 in this test?
no

Which outcome was assigned to COc1ccc(-c2nnc(SCc3cccc(C)c3)n2N)cc1 in this test?
yes

Which outcome was assigned to CCOC(=O)c1nnc(-c2ccccc2)nc1NCc1ccccc1 in this test?
no

Which outcome was assigned to COC1(OC)N=C(NC(=O)Nc2ccccc2)C2(C#N)C(c3ccccc3)C12C#N (stereo not given) in this test?
no

Which outcome was assigned to CCOC(=O)Cc1c(C)nc2c(C#N)c[nH]n2c1=O in this test?
no

Which outcome was assigned to CSc1nsc(SC)c1C(=O)Nc1ccc(C)cc1 in this test?
yes

Which outcome was assigned to CN(Cc1ccccc1)Cn1ccnc1 in this test?
yes

Which outcome was assigned to Cc1cccc(-c2n[nH]c([N+](=O)[O-])n2)c1 in this test?
no

Which outcome was assigned to C#CCN(C)Cc1ccccc1 in this test?
no

Which outcome was assigned to Clc1ccccc1-c1nc(N/N=C/c2cccnc2)c2ccccc2n1 in this test?
no

Which outcome was assigned to Cc1nn2c(NCC(C)C)c3c(nc2c1-c1ccccc1)CCC3 in this test?
no

Which outcome was assigned to CS(=O)c1ccccc1-c1nc(-c2cc(C(F)(F)F)cc(C(F)(F)F)c2)no1 (stereo not given) in this test?
no

Which outcome was assigned to CCCCCC(=O)N1CC2(CC(c3cccc(NC(=O)c4ccccc4)c3)=NO2)C[C@@H]1C(N)=O (stereo not given in full) in this test?
no

Which outcome was assigned to Cn1nc(-c2ccc(N3CCOCC3)c(NS(=O)(=O)c3ccc(Cl)cc3)c2)c2ccccc2c1=O in this test?
no

Which outcome was assigned to CCOC(=O)c1cnn(-c2nc(-c3ccc(F)cc3)cs2)c1C(F)(F)F in this test?
no

Which outcome was assigned to O=C(Oc1ccc2c(c1)CN(Cc1ccccc1)CO2)c1ccccc1 in this test?
yes

Which outcome was assigned to COc1ccc(NCc2nnc(SCc3ccccc3)n2-c2ccc(OC)cc2)cc1 in this test?
no

Which outcome was assigned to Cc1nn(C(C)C(=O)Nc2ccc(Cl)cn2)c(C)c1[N+](=O)[O-] (stereo not given) in this test?
no

====

biological target: Cytochrome P450 2D6 (Homo sapiens) (UniProt P10635); assay: Cytochrome panel assay with activity outcomes; conditions: recombinant CYP, pro-luciferin dealkylation, luminescence, p450-cyp2d6; series mostly up to 57.1 µM; for activity, negative = inhibition: % is set by controls: 0 for no effect and ±100 for the full control effect
Among all 16,000 compounds or so, about 2,600 (16%) were called active. Roughly 20% stayed inconclusive and do not appear here. These entries were drawn from the full list.
Quick reference: activity, negative = inhibition of the listed items.

# input molecule: O=C(O)/C(Cc1ccc([N+](=O)[O-])cc1)=N/O ; wanted: its activity, negative = inhibition
6.05% [at 11.4 µM] (inactive)

Further cases:
# input molecule: O=C1[C@H]2[C@H]3[C@H](O)[C@H](O)C/C(=N/OC[C@@H](O)COCc4ccco4)[C@@H]3CC[C@@H]2C(=O)N1C[C@@H]1CCCO1 ; wanted: its activity, negative = inhibition
3.77% [at 11.4 µM] (inactive)

# input molecule: N=C(N)SCCCN ; wanted: its activity, negative = inhibition
-11.8% [at 11.4 µM] (inactive)

# input molecule: Cn1c(=O)c2[nH]c(CCCCc3nc4c([nH]3)c(=O)n(C)c(=S)n4C)nc2n(C)c1=S ; wanted: its activity, negative = inhibition
-8.04% [at 11.4 µM] (inactive)

# input molecule: O=C(O)C[C@H](S)C(=O)O ; wanted: its activity, negative = inhibition
-2.12% [at 11.4 µM] (inactive)

====

molecular target: Cytochrome P450 2D6 (Homo sapiens) (UniProt P10635); experiment: Cytochrome panel assay with activity outcomes; conditions: recombinant CYP, pro-luciferin dealkylation, luminescence, p450-cyp2d6; series mostly up to 57.1 µM; for activity, negative = inhibition: % is set by controls: 0 for no effect and ±100 for the full control effect
In all, about 16,000 compounds went through this assay and about 2,600 (16%) were called active. Not shown: some 20% with an inconclusive outcome. The list is a sample of the results.
measuredAttribute: activity, negative = inhibition

# input compound: CCOC(=O)N/N=C1/C[C@@H](O)[C@@H](O)[C@@H]2[C@@H]3C(=O)N(CC)C(=O)[C@H]3CC[C@H]12 ; wanted: its activity, negative = inhibition
-3.76% [at 11.4 µM] (inactive)

Consider now this further compound.
# input compound: Nc1nc(-c2ccccc2)c(-c2ccccc2)c(-c2nc(N)nc(-c3ccccc3)c2-c2ccccc2)n1 ; wanted: its activity, negative = inhibition
-0.539% [at 11.4 µM] (inactive)

====

biological target: Cytochrome P450 2D6 (Homo sapiens) (UniProt P10635); test: Cytochrome panel assay with activity outcomes; settings: recombinant CYP, pro-luciferin dealkylation, luminescence, p450-cyp2d6; series mostly up to 57.1 µM
In all, about 16,000 compounds went through this assay and about 2,600 (16%) were called active. About 20% were inconclusive and are not listed. Calls come from the whole dose curve; as a rule, active = well fitted curve in the direction sought with a large enough effect; inconclusive = small, poorly fitted or top-dose-only effect, or effect the other way; inactive = no such curve, though single readings can be large or run the other way. Only a sample is shown.
Returns: one label drawn from 1 (yes) for active, 0 (no) for inactive

Which outcome was assigned to CCOc1ccc2nc(NC(=O)c3ccc(S(=O)(=O)N4CCOCC4)cc3)sc2c1 in this test?
0 (no)

Which outcome was assigned to Cn1cccc1C(=O)N1CCC[C@@]2(CCN(Cc3cc(C(F)(F)F)cc(C(F)(F)F)c3)C2)C1 in this test?
1 (yes)

Which outcome was assigned to Cn1cccc1C(=O)N1CCC2(CC1)CCN(c1ccccc1)CC2 in this test?
0 (no)

Further cases:
Which outcome was assigned to Cc1ccc2nc(-c3ccccc3)cc(C(=O)NCCCn3ccnc3)c2c1 in this test?
1 (yes)

Which outcome was assigned to COc1ccc(NC(=O)c2cc(-c3cccnc3)nc3ccc(C)cc23)cc1OC in this test?
0 (no)

Which outcome was assigned to CCOC(=O)C1CCN(C(=O)C2CCN(c3nc4ccc(OC)cc4s3)CC2)CC1 in this test?
0 (no)

====

Molecular target: Cytochrome P450 2D6 (Homo sapiens)
Assay: Cytochrome panel assay with activity outcomes
Details: recombinant CYP, pro-luciferin dealkylation, luminescence, p450-cyp2d6; series mostly up to 57.1 µM
Protocol: The P450 gene superfamily is involved in the metabolism and clearance of xenobiotics. This assay used various human CYP P450 isozymes to measure the dealkylation of various pro-luciferin substrates to luciferin. The luciferin is then measured by luminescence after the addition of a luciferase detection reagent. […] Inhibitors and some substrates limit the production of luciferin, and decrease measured luminescence. […] 8, Detection, 1 sec, ViewLux luminescent read […]
About 2,600 (16%) of roughly 16,000 compounds were called active. About 20% were inconclusive and are not listed. Calls come from the whole dose curve; as a rule, active = well fitted curve in the direction sought with a large enough effect; inconclusive = small, poorly fitted or top-dose-only effect, or effect the other way; inactive = no such curve, though single readings can be large or run the other way. The list is a sample of the results.
Returns: one label drawn from active, inactive

Which outcome was assigned to C/C(=N\NC(=O)c1ccc(Cl)cc1)c1cccc(NC(=O)C(C)C)c1 in this test?
inactive

Which outcome was assigned to C[N+]1(CCOc2ccc([N+](=O)[O-])cc2)CCOCC1 in this test?
inactive

Which outcome was assigned to CC(=O)NCc1c(Cl)cccc1-n1cccc1 in this test?
inactive

Which outcome was assigned to Cn1c(=NC(=O)CCl)sc2ccccc21 in this test?
inactive

Which outcome was assigned to COC(=O)C1CCN(CC(=O)Nc2sc3c(c2C#N)CCC3)CC1 in this test?
active

Which outcome was assigned to Cc1cc(C)c(C#N)c(SCC(=O)c2ccc(Cl)cc2Cl)n1 in this test?
inactive

Which outcome was assigned to O=C(NCC1CCCO1)C(c1cccnc1)N(C(=O)Cc1cccs1)c1cccnc1 (centres undefined) in this test?
inactive

Which outcome was assigned to COC(=O)CSc1ccc(C#N)c(SCC(=O)OC)c1 in this test?
inactive

Which outcome was assigned to Clc1ccc(COn2c(-c3ccccc3)nc3ccccc32)cc1 in this test?
active
